test system: B. cereus ATCC 11778; test: NCCLS broth microdilution MIC; type: cell-based, Bacillus cereus; conditions: C = B. cereus ATCC 11778
measured-metric: Minimum Inhibitory Concentration (MIC)

[[record]]
molecule = "Cn1cc(NC(=O)c2cc(NC(=O)c3cc(NC(=O)c4sccc4F)cn3C)cn2C)cc1C(=O)NCCN1CCOCC1 [Ie-5]"
recorded_result = "+++ (+++ = MIC ≦4)"

[[record]]
molecule = "CN(C)CCCNC(=O)CCNC(=O)c1cc(NC(=O)c2cc(NC(=O)CCNC(=O)c3cc(NC(=O)c4cc(NC(=O)c5sccc5F)cn4C)cn3C)cn2C)cn1C [Id-30]"
recorded_result = ">32 mg/L"

[[record]]
molecule = "Cn1cc(NC(=O)c2cc(NC(=O)CCNC(=O)c3cc(NC(=O)c4cc(NC(=O)c5cc(Br)c(Br)s5)cn4C)cn3C)cn2C)cc1C(=O)NCCC(=O)NCCCN1CCNCC1 [Id-13]"
recorded_result = ">32 mg/L"

[[record]]
molecule = "CC(C)N(CCNC(=O)CCNC(=O)c1cc(NC(=O)c2cc(NC(=O)CCNC(=O)c3cc(NC(=O)c4cc(NC(=O)c5ccc(Br)s5)cn4C)cn3C)cn2C)cn1C)C(C)C [Id-19]"
recorded_result = "+++ (+++ = MIC ≦4)"

[[record]]
molecule = "Cn1cc(NC(=O)c2cc(NC(=O)c3cc(NC(=O)c4sccc4Cl)cn3C)cn2C)cc1C(=O)NCCN1CCC(F)CC1 [Ie-13]"
recorded_result = "+++ (+++ = MIC ≦4)"

[[record]]
molecule = "Cn1cc(NC(=O)c2cc(NC(=O)CCNC(=O)c3cc(NC(=O)c4cc(NC(=O)c5cc(Br)c(NCCCN)s5)cn4C)cn3C)cn2C)cc1C(=O)NCCC(=O)NCCCN [Id-25]"
recorded_result = "+++ (+++ = MIC ≦4)"

[[record]]
molecule = "CN(C)CCCNC(=O)CCNC(=O)c1cc(NC(=O)c2cc(NC(=O)CCNC(=O)c3cc(NC(=O)c4cc(NC(=O)c5sccc5Cl)cn4C)cn3C)cn2C)cn1C [Id-27]"
recorded_result = "+++ (+++ = MIC ≦4)"

[[record]]
molecule = "CN(C)CCCNC(=O)CCNC(=O)c1cc(NC(=O)c2cc(NC(=O)c3cc(NC(=O)c4nc(NC(=O)CCCNC(=O)c5cc(NC(=O)c6cc(NC(=O)c7cc(NC(=O)c8cc(Br)c(Br)s8)cn7C)cn6C)cn5C)cn4C)cn3C)cn2C)cn1C [If-1]"
recorded_result = ">32 mg/L"


Lookup: Notebook: pull reported Minimum Inhibitory Concentration (MIC) for B. cereus ATCC 11778, entry CCN(CC)CCCNC(=O)CCNC(=O)c1cc(NC(=O)c2cc(NC(=O)CCNC(=O)c3cc(NC(=O)c4cc(NC(=O)c5cc(Br)c(Br)s5)cn4C)cn3C)cn2C)cn1C [Id-6]
Found: +++ (+++ = MIC ≦4)

Lookup: Notebook: pull reported Minimum Inhibitory Concentration (MIC) for B. cereus ATCC 11778, entry Cn1cc(NC(=O)c2cc(NC(=O)c3cc(NC(=O)c4sccc4Cl)cn3C)cn2C)cc1C(=O)NCCN1CCOCC1 [Ie-6]
Found: +++ (+++ = MIC ≦4)

Lookup: Notebook: pull reported Minimum Inhibitory Concentration (MIC) for B. cereus ATCC 11778, entry Cn1cc(NC(=O)c2cc(NC(=O)CCNC(=O)c3cc(NC(=O)c4cc(NC(=O)c5ccc(Br)s5)cn4C)cn3C)cn2C)cc1C(=O)NCCC(=O)NCCCCCCN [Id-21]
Found: +++ (+++ = MIC ≦4)

----------
test system: S. pneumoniae ATCC 49619; assay: NCCLS broth microdilution MIC; assay type: cell-based, Streptococcus pneumoniae; details: F = S. pneumoniae ATCC 49619
measured-metric: Minimum Inhibitory Concentration (MIC)

[[record]]
molecule = "Cn1cc(NC(=O)c2cc(NC(=O)c3cc(NC(=O)c4sccc4Cl)cn3CCCO)cn2C)cc1C(=O)NCCC(=O)NCCN1CCOCC1"
recorded_result = ">32 µg/mL"

[[record]]
molecule = "CN(C)CCCNC(=O)CCNC(=O)c1cc(NC(=O)c2cc(NC(=O)c3cc(NC(=O)c4nc(NC(=O)CCCNC(=O)c5cc(NC(=O)c6cc(NC(=O)c7cc(NC(=O)c8cc(Br)c(Br)s8)cn7C)cn6C)cn5C)cn4C)cn3C)cn2C)cn1C"
recorded_result = ">32 µg/mL"

[[record]]
molecule = "Cn1cc(NC(=O)c2cc(NC(=O)CCNC(=O)c3cc(NC(=O)c4cc(NC(=O)c5cc(Br)c(Br)s5)cn4C)cn3C)cn2C)cc1C(=O)NCCC(=O)NCCCCCCN"
recorded_result = "+++ (+++ = MIC ≦4)"

[[record]]
molecule = "Cn1cc(NC(=O)c2cc(NC(=O)CCNC(=O)c3cc(NC(=O)c4cc(NC(=O)c5ccc(Br)s5)cn4C)cn3C)cn2C)cc1C(=O)NCCC(=O)NCC(C)(C)CN"
recorded_result = "+++ (+++ = MIC ≦4)"


----------
tested on: S. pneumoniae ATCC 49619; assay: NCCLS broth microdilution MIC; assay type: cell-based, Streptococcus pneumoniae; details: F = S. pneumoniae ATCC 49619
measured-metric: Minimum Inhibitory Concentration (MIC)

Recorded results for 4 molecules are shown here.
[[record]]
molecule = "Cn1cc(NC(=O)c2cc(NC(=O)c3nc(NC(=O)c4scc(Br)c4Cl)cn3C)cn2C)cc1C(=O)NCCN1CCSCC1 [Ig-10]"
measured_metric = "Minimum Inhibitory Concentration (MIC)"
recorded_result = "+++ (+++ = MIC ≦4)"

[[record]]
molecule = "CN1CCCN(C(=O)CCNC(=O)c2cc(NC(=O)c3cc(NC(=O)CCNC(=O)c4cc(NC(=O)c5cc(NC(=O)c6ccc(Br)s6)cn5C)cn4C)cn3C)cn2C)CC1 [Id-16]"
measured_metric = "Minimum Inhibitory Concentration (MIC)"
recorded_result = "+++ (+++ = MIC ≦4)"

[[record]]
molecule = "Cn1cc(NC(=O)c2cc(NC(=O)CCNC(=O)c3cc(NC(=O)c4cc(NC(=O)c5cc(Br)c(Br)s5)cn4C)cn3C)cn2C)cc1C(=O)NCCC(=O)NCC(C)(C)CN [Id-4]"
measured_metric = "Minimum Inhibitory Concentration (MIC)"
recorded_result = "+++ (+++ = MIC ≦4)"

[[record]]
molecule = "CN(C)CCCNC(=O)CCNC(=O)c1cc(NC(=O)c2cc(NC(=O)CCNC(=O)c3cc(NC(=O)c4ccc(Cl)s4)cn3C)cn2C)cn1C [Id-29]"
measured_metric = "Minimum Inhibitory Concentration (MIC)"
recorded_result = ">32 µg/mL"


Lookup: What does the data say about its Minimum Inhibitory Concentration (MIC)? Entry: Cn1cc(NC(=O)c2cc(NC(=O)c3cc(NC(=O)c4ccc(Br)s4)cn3C)cn2C)cc1C(=O)NCCCC(=O)Nc1cn(C)c(C(=O)Nc2cc(C(=O)Nc3cc(C(=O)Nc4cc(C(=O)NCCC(=O)NCCCN5CCNCC5)n(C)c4)n(C)c3)n(C)c2)n1 [If-2]
Found: >32 µg/mL

----------
test system: B. cereus ATCC 11778; assay: NCCLS broth microdilution MIC; assay type: cell-based, Bacillus cereus; details: C = B. cereus ATCC 11778
measured-metric: Minimum Inhibitory Concentration (MIC)

Recorded results for 5 molecules are shown here.
[[record]]
molecule = "CN(C)CC(C)(C)CNC(=O)CCNC(=O)c1cc(NC(=O)c2cc(NC(=O)CCNC(=O)c3cc(NC(=O)c4cc(NC(=O)c5cc(Br)c(Br)s5)cn4C)cn3C)cn2C)cn1C"
recorded_result = "+++ (+++ = MIC ≦4)"

[[record]]
molecule = "Cn1cc(NC(=O)c2cc(NC(=O)c3cc(NC(=O)c4scc(Br)c4Cl)cn3C)cn2C)cc1C(=O)NCCN1CCSCC1"
recorded_result = "+++ (+++ = MIC ≦4)"

[[record]]
molecule = "Cn1cc(NC(=O)c2cc(NC(=O)CCNC(=O)c3cc(NC(=O)c4cc(NC(=O)c5cc(Br)c(Br)s5)cn4C)cn3C)cn2C)cc1C(=O)NCCC(=O)NCCCN"
recorded_result = "+++ (+++ = MIC ≦4)"

[[record]]
molecule = "Cn1cc(NC(=O)c2cc(NC(=O)CCNC(=O)c3cc(NC(=O)c4cc(NC(=O)c5cc(Br)c(Br)s5)cn4C)cn3C)cn2C)cc1C(=O)NCCC(=O)NCCCCCCN"
recorded_result = "+++ (+++ = MIC ≦4)"

[[record]]
molecule = "Cn1cc(NC(=O)c2cc(NC(=O)CCNC(=O)c3cc(NC(=O)c4cc(NC(=O)c5cc(Br)c(Br)s5)cn4C)cn3C)cn2C)cc1C(=O)NCCC(=O)NCCCCN"
recorded_result = ">32 µg/mL"


Lookup: What does the data say about its Minimum Inhibitory Concentration (MIC)? Entry: `Cn1cc(NC(=O)c2cc(NC(=O)CCNC(=O)c3cc(NC(=O)c4cc(NC(=O)c5ccc(Br)s5)cn4C)cn3C)cn2C)cc1C(=O)NCCC(=O)NCCCCN`
Found: +++ (+++ = MIC ≦4)

The values you see were collected from patent US20060287247A1.
